reportedMetric: melting point

- compound: "O=C(Nc1ccccc1C(=O)Nc1ccc(-n2ccccc2=O)cc1)c1ccc(Cl)o1 [6c]"
  melting point: "> 250 °C"

Problem: Provide measured melting point value, entry: O=C(Nc1ccccc1C(=O)Nc1ccc(N2CCOCC2=O)cc1)c1ccc(Cl)nc1 [6h-d]
Solution: > 250 °C

Problem: Provide measured melting point value, entry: COc1ccc(C(=O)Nc2ccccc2C(=O)Nc2ccc(N3CCOCC3=O)cc2)cc1 [6l-d]
Solution: > 250 °C

###

Target: human FXa (Homo sapiens)
Sequence (P00742 235-488 limits assumed): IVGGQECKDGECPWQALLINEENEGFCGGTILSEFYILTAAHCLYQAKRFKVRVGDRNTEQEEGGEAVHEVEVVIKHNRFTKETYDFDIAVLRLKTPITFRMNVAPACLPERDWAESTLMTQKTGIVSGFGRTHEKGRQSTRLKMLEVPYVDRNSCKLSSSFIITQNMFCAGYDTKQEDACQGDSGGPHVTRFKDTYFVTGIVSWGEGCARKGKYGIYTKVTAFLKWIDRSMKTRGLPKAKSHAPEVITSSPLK
Sequence (P00742 41-179 partner limits assumed): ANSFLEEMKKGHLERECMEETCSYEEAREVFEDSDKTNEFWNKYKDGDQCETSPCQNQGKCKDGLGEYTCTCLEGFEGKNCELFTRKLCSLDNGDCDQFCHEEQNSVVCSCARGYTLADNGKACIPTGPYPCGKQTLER
pIC50: −log10 of the molar value.
Each entry below lists one item and its recorded pIC50 value.

Worked cases, answers included:
- smilesEntry: "Cc1ccc(C(=O)Nc2ccccc2C(=O)Nc2ccc(-n3ccccc3=O)cc2)s1"
  reportedMetric: "pIC50"
  result: "< 6.00"
- smilesEntry: "COc1cc(C(=O)Nc2ccccc2C(=O)Nc2ccc(-n3ccccc3=O)cc2)cc(OC)c1OC"
  reportedMetric: "pIC50"
  result: "< 6.00"
- smilesEntry: "COc1ccc(C(=O)Nc2c(C)cccc2C(=O)Nc2ccc(N3CCOCC3=O)cc2)cc1"
  reportedMetric: "pIC50"
  result: "< 6.00"
- smilesEntry: "COc1ccc(C(=O)Nc2ccccc2C(=O)Nc2ccc(-n3ccccc3=O)cc2)cc1OC"
  reportedMetric: "pIC50"
  result: "< 6.00"
- smilesEntry: "Cc1cccc(C(=O)Nc2ccc(N3CCOCC3=O)cc2)c1NC(=O)c1ccc(Cl)cc1Cl"
  reportedMetric: "pIC50"
  result: "< 6.00"

Problem: Provide measured pIC50 value, entry: O=C(Nc1ccc(Cl)cc1C(=O)Nc1ccc(-n2ccccc2=O)cc1)c1ccc(Br)s1
Solution: 6.92

Problem: Provide measured pIC50 value, entry: Cc1cccc(C(=O)Nc2ccc(N3CCOCC3=O)cc2)c1NC(=O)c1ccc(Cl)nc1
Solution: < 6.00

Problem: Provide measured pIC50 value, entry: O=C(Nc1ccccc1C(=O)Nc1ccc(-n2ccccc2=O)cc1)c1ccc(C(F)(F)F)cc1
Solution: < 6.00

###

Let's go through some IC50 measurements on human FXa (Homo sapiens) together.
reportedMetric: IC50 (nM)

- smilesEntry: "COc1ccc(C(=O)Nc2ccc(C)cc2C(=O)Nc2ccc(N3CCOCC3=O)cc2)cc1"
  resultUnits: "nM"
  IC50: 433
- smilesEntry: "COc1ccc(C(=O)Nc2ccccc2C(=O)Nc2ccc(N3CCOCC3=O)cc2)cc1"
  resultUnits: "nM"
  IC50: 459
- smilesEntry: "Cc1ccc(NC(=O)c2ccc(Cl)nc2)c(C(=O)Nc2ccc(N3CCOCC3=O)cc2)c1"
  resultUnits: "nM"
  IC50: 453

A = O=C(Nc1ccc(Cl)cc1C(=O)Nc1ccc(-n2ccccc2=O)cc1)c1ccc(Cl)nc1
B = O=C(Nc1ccc(Cl)cc1C(=O)Nc1ccc(N2CCOCC2=O)cc1)c1ccc(Cl)nc1
C = O=C(Nc1ccccc1C(=O)Nc1ccc(-n2ccccc2=O)cc1)c1ccc(Cl)cc1Cl
Problem: # ascending order, key=IC50 Reply with the labels, ordered as the question asks.
Solution: C, A, B
